# TARGET_SYSTEM: hEP2 (Homo sapiens)
# Construct: expressed in transfected cells; host or cells: HEK293
# Sequence (P43116 whole entry): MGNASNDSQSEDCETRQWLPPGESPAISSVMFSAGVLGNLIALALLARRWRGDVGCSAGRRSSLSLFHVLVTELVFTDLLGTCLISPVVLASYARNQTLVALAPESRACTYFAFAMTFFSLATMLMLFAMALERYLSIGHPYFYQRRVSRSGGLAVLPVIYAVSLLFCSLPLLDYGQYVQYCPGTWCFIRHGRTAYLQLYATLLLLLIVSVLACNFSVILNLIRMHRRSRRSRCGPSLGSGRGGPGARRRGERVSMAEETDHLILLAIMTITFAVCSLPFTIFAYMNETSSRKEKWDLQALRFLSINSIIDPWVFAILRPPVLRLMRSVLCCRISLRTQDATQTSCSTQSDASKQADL
# PROTOCOL_DETAILS: hEP2 cAMP assay
# Format: cell-based
# SETTINGS: HEK293 cells overexpressing hEP2; PGE2 agonist 400 pM; graded per Table 21; read-out: IC50 (nM) EP2 cAMP
EXPERIMENTAL_READOUT: IC50

[
  {
    "COMPOUND": "Cc1sc(C)c(C(=O)NC2CC3(C2)CC(C(=O)O)C3)c1Cc1ccc(-c2ccccc2F)cc1 (centres unmarked)",
    "RECORDED_RESULT": "> 10000 nM"
  },
  {
    "COMPOUND": "O=C(N[C@H]1C[C@@H](C(=O)O)C1)c1csc2ccn(Cc3ccc(-c4ccccc4)cc3)c12",
    "RECORDED_RESULT": "> 10000 nM"
  },
  {
    "COMPOUND": "Cc1ccc(-c2ccc(Cc3c(C)sc(C)c3C(=O)NC3CC4(C3)CC(C(=O)O)C4)cc2)cc1C (centres unmarked)",
    "RECORDED_RESULT": "500 to 5000 nM"
  },
  {
    "COMPOUND": "Cc1sc(C)c(C(=O)c2ccc(-c3ccccc3)cc2)c1C(=O)NC1CC2(C1)CC(C(=O)O)C2 (centres unmarked)",
    "RECORDED_RESULT": "> 10000 nM"
  },
  {
    "COMPOUND": "COc1cc(CNC(=O)OC(C)(C)C)cc(-c2ccc(Cc3c(C)sc(C)c3C(=O)NC3CC4(C3)CC(C(=O)O)C4)cc2)c1 (centres unmarked)",
    "RECORDED_RESULT": "> 10000 nM"
  },
  {
    "COMPOUND": "Cc1sc(C)c(C(=O)NC2CC3(C2)CC(C(=O)O)C3)c1Cc1ccc(-c2cccc(F)c2)cc1 (centres unmarked)",
    "RECORDED_RESULT": "500 to 5000 nM"
  },
  {
    "COMPOUND": "COc1cc(C#N)cc(-c2ccc(Cc3c(C)sc(C)c3C(=O)NC3CC4(C3)CC(C(=O)O)C4)cc2)c1 (centres unmarked)",
    "RECORDED_RESULT": "500 to 5000 nM"
  },
  {
    "COMPOUND": "O=C(NC1CC2(C1)CC(C(=O)O)C2)c1c(Cl)sc(Cl)c1Cc1ccc(-c2ccccc2)cc1 (centres unmarked)",
    "RECORDED_RESULT": "5000 to 10000 nM"
  },
  {
    "COMPOUND": "Cc1sc(C)c(C(=O)NC2CC3(C2)CC(C(=O)O)C3)c1Cc1ccc(-c2ccccc2)cc1 (centres unmarked)",
    "RECORDED_RESULT": "500 to 5000 nM"
  },
  {
    "COMPOUND": "[H][C@]1(C(=O)O)C[C@]2(C[C@H](NC(=O)c3c(C)sc(C)c3Cc3ccc(-c4cc(OC)cc(N5CCC5=O)c4)cc3)C2)C1 (some centres unmarked)",
    "RECORDED_RESULT": "< 500 nM"
  },
  {
    "COMPOUND": "COc1cc(F)cc(-c2ccc(Cc3c(C)sc(C)c3C(=O)NC3CC4(C3)CC(C(=O)O)C4)cc2)c1 (centres unmarked)",
    "RECORDED_RESULT": "500 to 5000 nM"
  },
  {
    "COMPOUND": "Cc1sc(C)c(C(=O)NC2CC3(C2)CC(C(=O)O)C3)c1Cc1ccc(-c2cc(F)cc(OC(C)C)c2)cc1 (centres unmarked)",
    "RECORDED_RESULT": "500 to 5000 nM"
  },
  {
    "COMPOUND": "O=C(N[C@H]1C[C@H](C(=O)O)C1)c1csc2ccn(Cc3ccc(-c4ccccc4)cc3)c12",
    "RECORDED_RESULT": "500 to 5000 nM"
  },
  {
    "COMPOUND": "Cc1sc(C)c(C(=O)N[C@H]2CC3(C2)C[C@H](C(=O)O)C3)c1Cc1ccc(-c2ccccc2)cc1 (single isomer, unassigned) [Example 1a]",
    "RECORDED_RESULT": "> 10000 nM"
  },
  {
    "COMPOUND": "Cc1sc(C)c(C(=O)NC2CC3(C2)CC(C(=O)O)C3)c1Cc1ccc(-c2ccncc2)cc1 (centres unmarked)",
    "RECORDED_RESULT": "> 10000 nM"
  },
  {
    "COMPOUND": "O=C(NC1CC2(C1)CC(C(=O)O)C2)c1sccc1Cc1ccc(-c2ccccc2)cc1 (centres unmarked)",
    "RECORDED_RESULT": "500 to 5000 nM"
  },
  {
    "COMPOUND": "Cc1sc(C)c(C(=O)NC2CC3(C2)CC(C(=O)O)C3)c1Cn1cc(-c2ccccc2)cn1 (centres unmarked)",
    "RECORDED_RESULT": "> 10000 nM"
  },
  {
    "COMPOUND": "COc1cc(F)cc(-c2ccc(Cn3ccc4scc(C(=O)NC5CC6(C5)CC(C(=O)O)C6)c43)nc2)c1 (centres unmarked)",
    "RECORDED_RESULT": "500 to 5000 nM"
  },
  {
    "COMPOUND": "Cc1sc(C)c(C(=O)NC2CC3(C2)CC(C(=O)O)C3)c1Cc1ccc(-c2ccc(S(C)(=O)=O)cc2)cc1 (centres unmarked)",
    "RECORDED_RESULT": "> 10000 nM"
  },
  {
    "COMPOUND": "Cc1sc(C)c(C(=O)NC2CC3(C2)CC(C(=O)O)C3)c1CCc1ccc(-c2ccccc2)cc1 (centres unmarked)",
    "RECORDED_RESULT": "> 10000 nM"
  },
  {
    "COMPOUND": "COc1cc(F)cc(-c2ccc(Cn3ccc4scc(C(=O)NC5CC6(C5)CC(C(=O)O)C6)c43)cc2)c1 (centres unmarked)",
    "RECORDED_RESULT": "< 500 nM"
  },
  {
    "COMPOUND": "Cc1sc(C)c(C(=O)NC2CC3(C2)CC(C(=O)O)C3)c1Cc1ccc(-c2cccnc2)cc1 (centres unmarked)",
    "RECORDED_RESULT": "> 10000 nM"
  },
  {
    "COMPOUND": "Cc1sc(C)c(C(=O)NC2CC3(C2)CC(C(=O)O)C3)c1Cc1ccc(-c2ccnc(O)c2)cc1 (centres unmarked)",
    "RECORDED_RESULT": "> 10000 nM"
  },
  {
    "COMPOUND": "O=C(NC1CC2(C1)CC(C(=O)O)C2)c1csc2ccn(Cc3ccc(-c4ccncc4)cc3)c12 (centres unmarked)",
    "RECORDED_RESULT": "5000 to 10000 nM"
  },
  {
    "COMPOUND": "Cc1sc(C)c(C(=O)NC2CC3(C2)CC(C(=O)O)C3)c1Cc1cccc(-c2ccccc2)c1 (centres unmarked)",
    "RECORDED_RESULT": "> 10000 nM"
  },
  {
    "COMPOUND": "COc1cc(OC)cc(-c2ccc(Cc3c(C)sc(C)c3C(=O)NC3CC4(C3)CC(C(=O)O)C4)cc2)c1 (centres unmarked)",
    "RECORDED_RESULT": "500 to 5000 nM"
  },
  {
    "COMPOUND": "Cc1sc(C)c(C(=O)NC2CC3(C2)CC(C(=O)O)C3)c1Cc1ccc(C2CCCCC2)cc1 (centres unmarked)",
    "RECORDED_RESULT": "> 10000 nM"
  },
  {
    "COMPOUND": "O=C(NC1CC2(C1)CC(C(=O)O)C2)c1csc(-c2ccccc2)c1Cc1ccc(-c2ccccc2)cc1 (centres unmarked)",
    "RECORDED_RESULT": "> 10000 nM"
  },
  {
    "COMPOUND": "COc1cc(-c2ccc(Cc3c(C)sc(C)c3C(=O)NC3CC4(C3)CC(C(=O)O)C4)cc2)cc(C2(O)COC2)c1 (centres unmarked)",
    "RECORDED_RESULT": "> 10000 nM"
  }
]

Where do these numbers come from? They come from patent US20230365582A1.
